// provenance: patent US20220305013A1

Experimental details: Critical aggregation concentration (CAC) by dynamic light scattering in pH-adjusted PBS
Assay type: physicochemical
Assay context: pH 7.4 vs 5.5, DLS
Recorded endpoint: critical aggregation concentration (CAC) as a function of pH

Clc1ccccc1C(c1ccccc1)(c1ccccc1)n1ccnc1
pH-dependent CACs
CS(=O)(=O)CCNCc1ccc(-c2ccc3ncnc(Nc4ccc(OCc5cccc(F)c5)c(Cl)c4)c3c2)o1
pH-dependent CACs
